Would you kindly list apparent KD of K4 kissing-loop reporter for each of these sequences?
Tested on: K4 kissing-loop RNA reporter;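 note: bound reporter read as fluorescence of individual clusters on recovered sequencing chips by microscopy, with normalized cluster intensities fitted with a binding model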
experiment.summary: apparent KD of K4 kissing-loop reporter; higher = weaker reporter binding
details: Eterna round: R107; input ligand: tryptophan 2.4 mM
I only need the number, in nM, no unit after it.

Record summary for CCUAUCUCAUACGAUACCAGUCAAUGAUCUUUGAUCAAUGCCAUCACCGAGUGAUGUUCGGACCCUUGGCAGCGUAUGAGAUGGG [whbob_Ex_Theo_B_sa104] : reported apparent KD of K4 kissing-loop reporter = 246

Briefly, apparent KD of K4 kissing-loop reporter measured for GGAUUCGGCGCGGCCGCCACUUCCGGUGGCUGGUGUCAUGGUGCGCGUGAGUGAUGUUUAUGUGGGAGGACCGGGCGUUGAGUCC [whbob_Ex_Tryp_B_w45] : 305

Value of measured apparent KD of K4 kissing-loop reporter for the entry CCAUUCAGUUACGAUACCAGUCUAAUAUAUUUGAUCAAAACCCUCGCCGAGUGAUGUUCGGACCCUUGGCAGCGUCUGGGACAGG [xxcetmullin] : 344

----------
Tested on: MS2 coat protein
experiment.summary: apparent KD of MS2 coat protein; designed switch direction (-1 OFF switch, 1 ON switch): -1; higher = weaker reporter binding
details: Eterna round: R95; input ligand: FMN 200 uM
Task for the reader: assign each of the following sequences its reported apparent KD of MS2 coat protein.
Expressed in µM, but write only the number.

Reported apparent KD of MS2 coat protein of AGUAGAUCUACGCUUGCGUGGAUCUGCUAGGCAGGUGUUACAUGAGGAUCACCCAUGUCCUCAUUUGUUCGUCUUAU [JL turnoff v2 99.17] (puzzle: Sensor v3, turn-off variant 2) : 0.378

Measured apparent KD of MS2 coat protein of CUAGAUCUUCGGAUCUAGUACAUGAGGAUCACCCAUGUUACGAGCAGAUCUUCAUACAAGCUUUUUGCUCGUCUUAU [Sensor v3 - Turn-off variant 1 - 33] (puzzle: Sensor v3, turn-off variant 1) : 0.0334

AGUACUAACACGCAAGUGUUAGUACAAUAAGCUUGUGAAACAUGAGGAUCACCCAUGUCCUCAUAAGCUCGUCUUAU [salish99_TOv2_r3_027] (puzzle: Sensor v3, turn-off variant 2) yielded apparent KD of MS2 coat protein of 0.0162

GCGAAAGCAAGCAAGUGAAACAUGAGGAUCACCCAUGUCCUCAUUUGCUCGUCUUAUAAGCUAUGCGAAAGCAUAGC [Sensor 3, v1 - 2] (puzzle: Sensor v3, turn-off variant 1) has a reported apparent KD of MS2 coat protein of 0.0139

----------
Tested on: MS2 coat protein
experiment.summary: apparent KD of MS2 coat protein; higher = weaker reporter binding
details: Eterna round: R107; input ligand: none
For each of the sequences below, state its apparent KD of MS2 coat protein.
Your answer should be a number followed by the unit of measure.

sequence UUAUUUAACGGAAGGAGCGCGGAAAUUAAGGUGGGUAAACAUGAGGAUCACCCAUGUAAUCCGCAGGUAGGUCGCCGAUAUUUAU [#24 Exclusion - Arginine B] , apparent KD of MS2 coat protein observed: 156 nM

The recorded apparent KD of MS2 coat protein for entry GUUGGUUUGGGAAGGAGCGGGUAUGUUGUCUACUUGAUCCUAACAUGAGGAUCACCCAUGUCCCAGGUAGGUCGCCCAAGCUUUG [12.aE] equals 161 nM

Documented apparent KD of MS2 coat protein of AAGAAAACAUGAGCAAAGCUCAUGUGCGAAGGAGCGGCGGAAACGCCAGGUAGGUCGCGCACAUGAGCAUCAGCCAUGUGUAUCA [Omei Arginine B SS A v3] : 36.7 nM

// apparent KD of MS2 coat protein value for CGUACAUGAGGAUCACCCAUGUUACAUGAUACCAGACAUGAAAAUGUCCCUUGGCAGCAUGGCGCUGAUAGGGCGGGAAACCCGA [Zabovresky] : 19.2 nM

# sequence UCGCGAUAGAGAAGGAGCGUCAACACCACUUAACAUGAGGAUCACCCAUGUGUUACUUUGUGACAGGUAGGUCGCUCUAGCGCUU [JR_Nu_ExcArginiB_Sub026] ; its apparent KD of MS2 coat protein = 19.3 nM

In plain terms, UGAUGGUUCGGAAGGAGCGUGUAAGAACAAGAACAUGAGGAUCACCCAUGUAUUAAUUUAACACAGGUAGGUCGCCGGGUUAUUG [11.J] has a documented apparent KD of MS2 coat protein of 16.3 nM
